Please respond with reported viability, T/C for every item in the list.
- Test system: 755483-174-R-J1-PDC complex spheroid growth, percent test/control;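 further: spheroids exposed to compounds for seven days before readout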
- Measurement Notes: Anticancer human tumor 755483-174-R-J1-PDC patient-derived rhabdomyosarcoma cell line growth inhibition [Asc]
- Measurement Conditions: second compound 0.316 µM; first compound 3 µM; hits give low values
Field format: number, assumed %, no unit text.

For the record CCN1C(C(=O)NC23CCC(C(=O)O)(CC2)CC3)C(c2cccc(Cl)c2F)C2(C(=O)Nc3cc(Cl)ccc32)C12CCCCC2 (centres undefined) + Cc1c(S(C)(=O)=O)c(-c2cc(F)cc(N3CCN(c4ccc(NS(=O)(=O)c5ccc(NC(CCN6CCC(C(=O)OCCCP(=O)(O)O)CC6)CSc6ccccc6)c(S(=O)(=O)C(F)(F)F)c5)cc4)CC3)c2)c(-c2ccc(Cl)cc2)n1C(C)C , what value of viability, T/C is listed for 755483-174-R-J1-PDC complex spheroid growth, percent test/control?
36.1

For the record Cc1nc(N2CCC3(CC2)COC(C)C3N)c(CO)nc1Sc1ccnc(N)c1Cl (centres undefined) + CNC(C)C(=O)NC1CN(S(=O)(=O)c2cccc(S(=O)(=O)N3CCC4CCC(C(=O)NC(c5ccccc5)c5ccccc5)N4C(=O)C(NC(=O)C(C)NC)C3)c2)CCC2CCC(C(=O)NC(c3ccccc3)c3ccccc3)N2C1=O , what value of viability, T/C is listed for 755483-174-R-J1-PDC complex spheroid growth, percent test/control?
11.4

For the record CCN1C(C(=O)NC23CCC(C(=O)O)(CC2)CC3)C(c2cccc(Cl)c2F)C2(C(=O)Nc3cc(Cl)ccc32)C12CCCCC2 (centres undefined) + CNC(C)C(=O)NC1CN(S(=O)(=O)c2cccc(S(=O)(=O)N3CCC4CCC(C(=O)NC(c5ccccc5)c5ccccc5)N4C(=O)C(NC(=O)C(C)NC)C3)c2)CCC2CCC(C(=O)NC(c3ccccc3)c3ccccc3)N2C1=O , what value of viability, T/C is listed for 755483-174-R-J1-PDC complex spheroid growth, percent test/control?
27

For the record Cc1nc(N2CCC3(CC2)COC(C)C3N)c(CO)nc1Sc1ccnc(N)c1Cl (centres undefined) + Cc1c(S(C)(=O)=O)c(-c2cc(F)cc(N3CCN(c4ccc(NS(=O)(=O)c5ccc(NC(CCN6CCC(C(=O)OCCCP(=O)(O)O)CC6)CSc6ccccc6)c(S(=O)(=O)C(F)(F)F)c5)cc4)CC3)c2)c(-c2ccc(Cl)cc2)n1C(C)C , what value of viability, T/C is listed for 755483-174-R-J1-PDC complex spheroid growth, percent test/control?
9.74
